- Test system: HEK-293T
- Assay details: Multiplex assay against HEK293T
- Assay type: toxicity, cell-based
- Stated conditions: human, 48 h, 1 µM, compound concentration 1 uM, replicate 2
Values of Population Apoptotic (%) greater than or equal to 10% map to rule met; values below map to rule not met.

[[record]]
molecule = "CC(C)NC(=O)N1CC[C@H](NC2=Nc3cc(F)ccc3N(CC(F)F)c3ccc(Cl)cc32)C1"
label_value = "rule met"

[[record]]
molecule = "COc1ccc(-c2ccc3ncc4c(c3c2)n(-c2ccc(N3CCNCC3)c(C(F)(F)F)c2)c(=O)n4C)cn1.O=C(O)/C=C\\C(=O)O [BGT-226]"
label_value = "rule met"

[[record]]
molecule = "O=c1cc(N2CCOCC2)oc2c(-c3cccc4c3sc3ccccc34)cccc12"
label_value = "rule met"

[[record]]
molecule = "COc1ccccc1CN[C@H]1C2CCN(CC2)[C@H]1C(c1ccccc1)c1ccccc1 [CP-96345]"
label_value = "rule not met"

[[record]]
molecule = "Cc1c[nH]c2nccc(Oc3c(F)cc(Nc4cc(Cl)nc(N)n4)cc3F)c12 [BAY-549]"
label_value = "rule met"

[[record]]
molecule = "COc1cc(Nc2nccc(-c3cnn4nc(OC)ccc34)n2)cc(C(F)(F)F)c1"
label_value = "rule not met"

[[record]]
molecule = "Cl.O=C(O)c1cc(-c2ccc(C3CCNCC3)cc2)c2ccc(-c3ccc(C(F)(F)F)cc3)cc2c1"
label_value = "rule not met"

[[record]]
molecule = "CCCSc1nc(N[C@@H]2C[C@H]2c2ccc(F)c(F)c2)c2nnn([C@@H]3C[C@H](OCCO)[C@@H](O)[C@H]3O)c2n1 [TICAGRELOR]"
label_value = "rule met"

[[record]]
molecule = "COC(=O)C1=C(C)NC(C)=C(C(=O)OCCCN2CCC(c3ccccc3)(c3ccccc3)CC2)[C@H]1c1cccc([N+](=O)[O-])c1 [NIGULDIPINE]"
label_value = "rule met"

[[record]]
molecule = "C[C@]12CC[C@@H]3c4ccc(O)cc4CC[C@H]3[C@@H]1CC[C@@H]2O [ESTRADIOL]"
label_value = "rule not met"

[[record]]
molecule = "CC(C)(C)NC[C@H](O)COc1nsnc1N1CCOCC1 [TIMOLOL]"
label_value = "rule met"

[[record]]
molecule = "CC(C)c1noc(N2CCC(COc3ccc(-c4ccc(S(C)(=O)=O)cc4)nc3)CC2)n1 [GSK-1292263]"
label_value = "rule met"

[[record]]
molecule = "O=C(c1cc2c(cc1F)OC(c1ccc(F)cc1)(c1ccc(Cl)cc1Cl)O2)N1CCOCC1 (configuration not stated)"
label_value = "rule met"

[[record]]
molecule = "CCc1nn(CCCN2CCN(c3cccc(Cl)c3)CC2)c(=O)n1CCOc1ccccc1.Cl [NEFAZODONE HYDROCHLORIDE]"
label_value = "rule met"

[[record]]
molecule = "Cc1ccc(C)c(Oc2ccncc2C(=O)N2CCN(C3CC3)c3ccccc32)c1"
label_value = "rule met"

[[record]]
molecule = "CCc1ccc(OCc2ccccc2C(=O)Nc2ccc3nc(C)cc(N)c3c2)cc1.Cl"
label_value = "rule met"

[[record]]
molecule = "CC1=C(C(=O)Nc2cc3cn[nH]c3cc2F)C(c2ccc(C(F)(F)F)cc2)CC(=O)N1 (configuration not stated)"
label_value = "rule not met"

